Parameter: pIC50. Scope: all listed entries.
EXPERIMENTAL TARGET: HER2 (GST/HIS6 fusion, amino acids 679 to 1255 of HER-2) (Homo sapiens, UniProt P04626)
Construct: GST (Glutathione-S-Transferase) (N); HIS6 (N); thrombin cleavage site (N)
Sequence (P04626 679-1255): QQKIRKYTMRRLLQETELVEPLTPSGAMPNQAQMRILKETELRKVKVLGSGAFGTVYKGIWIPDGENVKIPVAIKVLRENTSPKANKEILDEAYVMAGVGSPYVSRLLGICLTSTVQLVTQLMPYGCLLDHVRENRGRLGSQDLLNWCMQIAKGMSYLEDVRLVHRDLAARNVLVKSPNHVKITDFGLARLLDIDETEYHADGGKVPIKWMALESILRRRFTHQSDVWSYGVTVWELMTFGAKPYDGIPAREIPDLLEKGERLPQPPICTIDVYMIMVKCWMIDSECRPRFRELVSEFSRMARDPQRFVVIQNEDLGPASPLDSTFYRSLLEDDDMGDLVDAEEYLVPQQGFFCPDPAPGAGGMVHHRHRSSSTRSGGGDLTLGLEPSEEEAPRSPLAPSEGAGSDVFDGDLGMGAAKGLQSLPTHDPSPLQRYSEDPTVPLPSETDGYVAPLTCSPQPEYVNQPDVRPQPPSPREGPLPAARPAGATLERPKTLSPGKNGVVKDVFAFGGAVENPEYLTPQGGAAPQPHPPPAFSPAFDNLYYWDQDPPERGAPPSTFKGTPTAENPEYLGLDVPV
PROTOCOL: HER2 screening assay (33P-ATP FlashPlate)
ASSAY CONDITIONS: 10 μM ATP, 1 hr at 30° C.
pIC50: −log10 of the molar value.

q: State the recorded pIC50 for this entry: FC(F)(F)c1c[nH]c(-c2n[nH]cc2/C=C/c2cccnc2)n1 [Cpd 2]
a: < 4.00

q: State the recorded pIC50 for this entry: N#Cc1c[nH]c(-c2n[nH]cc2/C=C/c2cccnc2)n1 [Cpd 3]
a: < 4.00

q: State the recorded pIC50 for this entry: CCNCc1cncc(/C=C/c2c[nH]nc2-c2nc(C(F)(F)F)c[nH]2)c1 [Cpd 1]
a: < 4.00
